assayed_system: adenylosuccinate synthetase (ADSS) isolated from maize (Zea mays, UniProt O24578)
Construct: ADSS is obtained from 4-5 day old, etiolated seedlings of Zea mays
Sequence (O24578 45-484): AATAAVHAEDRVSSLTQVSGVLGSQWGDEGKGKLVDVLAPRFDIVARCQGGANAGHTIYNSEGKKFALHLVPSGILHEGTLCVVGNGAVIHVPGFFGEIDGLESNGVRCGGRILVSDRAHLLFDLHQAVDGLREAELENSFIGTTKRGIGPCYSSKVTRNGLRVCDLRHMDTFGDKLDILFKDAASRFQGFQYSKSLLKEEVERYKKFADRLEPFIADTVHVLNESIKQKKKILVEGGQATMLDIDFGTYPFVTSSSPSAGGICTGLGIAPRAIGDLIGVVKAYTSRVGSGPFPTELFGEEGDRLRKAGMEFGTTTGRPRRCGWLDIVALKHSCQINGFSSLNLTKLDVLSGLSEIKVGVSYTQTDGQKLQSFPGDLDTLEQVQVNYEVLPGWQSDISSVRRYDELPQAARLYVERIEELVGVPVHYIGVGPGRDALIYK
procedure_summary: ADSS enzyme assay (HPLC and spectrophotometric), maize ADSS
measurement_setup: "under these conditions"; ADSS source not given
property_label: IC50 (µM)

                     compound                            assayed_system  property_label  result_unit  numeric_value
0  O=CN(O)CC(=O)O [hadacidin]  adenylosuccinate synthetase (ADSS) isolated from maize (Zea mays, UniProt O24578)            IC50           µM              3
